# credit: patent US20230348454A1

Assayed target: hBPGM (Homo sapiens)
Assay method text: BPGM synthase assay
Type: biochemical
Experimental conditions: Table 6; read-out: huBPGM: synthase Enzyme IC50
Value type: IC50 (nM)

Please review the following examples before continuing.
Cc1nc(COCC(=O)N2CCC(O)C2)sc1-c1csc(-c2cc(F)c(O)c(F)c2F)n1 (stereo not drawn)
6300
Cc1nc(COC(=O)N2CCC(O)C2)sc1-c1cccc(-c2cc(F)c3nn[nH]c3c2F)n1 (stereo not drawn)
21
Cc1nc(COCC(C)(C)C)sc1-c1cccc(-c2cc(F)c3nn[nH]c3c2F)n1
1300

[A] Cc1nc(COCC(=O)O)sc1-c1csc(-c2cc(F)c(O)c(F)c2F)n1
[B] Cc1nc(C)c(-c2csc(-c3cc(F)c4[nH]nnc4c3)n2)s1
[C] Cc1nc(COCC2(O)CC2)sc1-c1cccc(-c2cc(F)c3nn[nH]c3c2F)n1
[D] COC(C)(C)COCc1nc(C)c(-c2cccc(-c3cc(F)c4nn[nH]c4c3F)n2)s1
[E] Cc1nc(CN(C)CC(C)(C)O)sc1-c1cccc(-c2cc(F)c3nn[nH]c3c2F)n1
Data request: Would you mind ranking these compounds by ascending IC50? Please list the labels according to the requested order.
Data returned: D, C, E, B, A

[1] Cc1nc(COc2cccnn2)sc1-c1cccc(-c2cc(F)c3nn[nH]c3c2F)n1
[2] Cc1nc(CNC(=O)c2cccnn2)sc1-c1csc(-c2cc(F)c(O)c(F)c2F)n1 [Example 188]
[3] COc1cnc(OCc2nc(C)c(-c3cccc(-c4cc(F)c5nn[nH]c5c4)n3)s2)nc1
[4] COCC1CCCN1C(=O)OCc1nc(C)c(-c2cccc(-c3cc(F)c4nn[nH]c4c3F)n2)s1 (stereo not drawn)
Data request: Thanks in advance: please rank these 4 entries by IC50, highest to lowest. Use the labels to give the ranking in the order requested.
Data returned: 3, 2, 4, 1
(3: 260 nM, 2: 84 nM, 4: 44 nM, 1: 24 nM)

[A] Cc1nc(CNC(=O)C(C)(C)C)sc1-c1csc(-c2cc(F)c(O)c(F)c2)c1
[B] COC(=O)NCc1nc(C)c(-c2csc(-c3cc(F)c(O)cc3F)n2)s1
Data request: Please indicate which item has the smaller measured IC50: A versus B Refer to your chosen entry by its label in the reply.
Data returned: B

* * *

Assayed target: UniProt:P07738
Assay method text: BPGM synthase assay
Assay type: biochemical
Experimental conditions: Table 6; read-out: huBPGM: synthase Enzyme IC50
Value type: IC50 (nM)

Cc1nc(COc2ncccn2)sc1-c1ccnc(-c2cc(F)c(O)c(C#N)c2)n1 [Example 69]
79
Cc1nc(CNC(=O)C(C)(C)C)sc1-c1csc(-c2cc(F)c(O)c(F)c2F)n1 [Example 111]
570
Cc1nc(COC(=O)N2CCC(O)C2)sc1-c1cccc(-c2cc(F)c(O)c(F)c2F)n1 (stereo not drawn) [Example 35]
600
Cc1nc(COc2ccccn2)sc1-c1csc(-c2cc(F)c(O)c(F)c2F)c1 [Example 102]
620
COC(=O)NCc1nc(C)c(-c2csc(-c3cc(O)c(-c4nnn[nH]4)cc3F)c2)s1 [Example 184]
250
Cc1nc(CN2CCCC2=O)sc1-c1cccc(-c2cc(F)c3nn[nH]c3c2F)n1 [Example 26]
110
Cc1nc(COc2ncc(C(=O)O)cn2)sc1-c1cccc(-c2cc(F)c3nn[nH]c3c2F)n1 [Example 135]
160
Cc1nc(COCC(=O)N2CCNCC2)sc1-c1csc(-c2cc(F)c(O)c(F)c2F)n1 [Example 115]
4400
Cc1nc(CNC(=O)c2cnn(C)c2)sc1-c1csc(-c2cc(F)c(O)c(F)c2F)n1 [Example 113]
530
Cc1nc(CN/C(=N/C#N)N(C)C)sc1-c1cccc(-c2cc(F)c(O)c(F)c2F)n1 [Example 27]
1500

[1] Cc1nc(CN(C)C)sc1-c1cccc(-c2cc(F)c3nn[nH]c3c2F)n1 [Example 52]
[2] Cc1nc(COCC(C)(C)O)sc1-c1nc(-c2cc(F)c3nn[nH]c3c2F)cs1 [Example 224]
[3] Cc1nc(C(=O)NC2CCC(O)CC2)sc1-c1cccc(-c2cc(F)c3[nH]nnc3c2F)n1 (stereo not drawn) [Example 217]
[4] Cc1nc(CNC(=O)c2cccnn2)sc1-c1csc(-c2cc(F)c(O)c(F)c2)c1 [Example 194]
[5] Cc1nc(COc2ncccn2)sc1-c1cccc(-c2ccc(C#N)c(O)c2F)n1 [Example 105]
Data request: Arrange the 5 compounds by rising IC50, starting with the smallest. Reply format: the labels, ordered as requested.
Data returned: 2, 3, 5, 1, 4
(2: 30 nM, 3: 120 nM, 5: 220 nM, 1: 390 nM, 4: 820 nM)

* * *

Assayed target: hBPGM (Homo sapiens)
Assay method text: BPGM synthase assay
Type: biochemical
Experimental conditions: Table 6; read-out: huBPGM: synthase Enzyme IC50
pIC50: −log10 of the molar value.
Value type: pIC50

The examples below pair each entry with its known result.
Cc1nc(CNC(=O)c2cccnn2)sc1-c1nc(-c2cc(F)c3nn[nH]c3c2F)cs1 [Example 43]
7.85
COC(=O)NCc1nc(C)c(-c2csc(-c3ccc(C(=O)Nc4nnn[nH]4)cc3)n2)s1 [Example 207]
5.19

[a] Cc1nc(COc2ccccn2)sc1-c1csc(-c2cc(F)c(O)c(F)c2)c1 [Example 198]
[b] Cc1nc(COC(=O)N2CC(O)C2)sc1-c1cccc(-c2cc(F)c3nn[nH]c3c2F)n1 [Example 59]
Data request: Two entries are listed, a and b . Which one carries the higher pIC50? Record your answer as the label of the chosen record.
Data returned: b

* * *

Assayed target: hBPGM (Homo sapiens, UniProt P07738)
Sequence (P07738 1-259): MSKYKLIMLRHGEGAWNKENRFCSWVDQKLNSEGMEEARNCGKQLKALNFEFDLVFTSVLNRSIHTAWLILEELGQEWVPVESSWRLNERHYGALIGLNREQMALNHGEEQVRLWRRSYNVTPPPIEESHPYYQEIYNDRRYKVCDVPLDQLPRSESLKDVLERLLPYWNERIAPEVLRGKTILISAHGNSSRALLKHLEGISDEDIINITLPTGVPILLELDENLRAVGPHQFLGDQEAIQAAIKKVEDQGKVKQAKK
Assay method text: BPGM synthase assay
Assay type: biochemical
Experimental conditions: Table 6; read-out: huBPGM: synthase Enzyme IC50
pIC50: −log10 of the molar value.
Value type: pIC50

Cc1nc(COCC(C)(C)O)sc1-c1cccc(-c2cc(F)c3nn[nH]c3c2)n1
7.24
Cc1nc(COC(C)(C)C)sc1-c1cccc(-c2cc(F)c3nn[nH]c3c2F)n1
6.89
COC1CCN(C(=O)OCc2nc(C)c(-c3cccc(-c4cc(F)c5nn[nH]c5c4F)n3)s2)C1 (stereo not shown)
7.39
Cc1nc(COC(=O)N2CCC(O)C2)sc1-c1cccc(-c2cc(F)c3nn[nH]c3c2F)c1 (stereo not shown)
6.46
Cc1nc(COCC(=O)N(C)C)sc1-c1cccc(-c2cc(F)c(O)c(F)c2F)n1
5.96

[A] Cc1nc(COc2ccccn2)sc1-c1csc(-c2cc(F)c3[nH]nnc3c2F)n1
[B] Cc1nnc(-c2cccc(-c3cc(F)c4nn[nH]c4c3F)n2)s1
Data request: Min pIC50? A | B Selection: enter the item's label.
Data returned: A

* * *

Assayed target: human Bisphosphoglycerate mutase (hBPGM) (Homo sapiens)
Assay method text: BPGM phosphatase assay
Format: biochemical
Experimental conditions: Table 6; read-out: huBPGM: phosphatase Enzyme EC50
pEC50: −log10 of the molar value.
Value type: pEC50

Cc1nc(COC(=O)N(C)C)sc1-c1cccc(-c2cc(F)c3nn[nH]c3c2)n1
7.12

[I] Cc1nc(CNC(=O)C(C)(C)C)sc1-c1csc(-c2cc(F)c(O)c(F)c2)c1
[II] Cc1nc(CNC(=O)C(C)(C)C)sc1-c1csc(-c2cc(F)c(O)c(F)c2)n1
[III] Cc1cnc(OCc2nc(C)c(-c3cccc(-c4cc(F)c5nn[nH]c5c4)n3)s2)nc1C
[IV] COC(=O)NCc1nc(C)c(-c2csc(-c3ccc4[nH]nnc4c3F)n2)s1 [Example 156]
[V] COC(=O)NCc1nc(C)c(-c2cccc(-c3cc(F)c(O)c(F)c3F)n2)s1
Data request: # rank by pEC50, ascending (min first) List the labels according to the requested ordering.
Data returned: II, V, I, IV, III

[I] Cc1nc(CNC(=O)c2cccnn2)sc1-c1cccc(-c2cc(F)c(O)c(F)c2F)n1
[II] Cc1nc(COc2ncccn2)sc1-c1cccc(-c2cc(F)c(O)c(F)c2F)c1
Data request: Name the one with the greater pEC50 value, either I or II as given. # reply format: chosen label
Data returned: II

[1] COC(=O)NCc1nc(C)c(-c2csc(-c3ccc(-c4nnn[nH]4)c(O)c3)n2)s1
[2] Cc1nc(COc2ncccn2)sc1-c1cccc(-c2ccc(C#N)c(O)c2)n1
Data request: Select one: 1 or 2 . Criterion: greater recorded pEC50. # answer = label of selected item
Data returned: 1

[P] COC(=O)NCc1nc(C)c(-c2csc(-c3ccc(-c4nnn[nH]4)cc3)n2)s1
[Q] Cc1ccnc(OCc2nc(C)c(-c3cccc(-c4cc(F)c5nn[nH]c5c4F)n3)s2)n1
[R] CC(=O)NCc1nc(C)c(-c2csc(-c3cc(F)c(O)c(F)c3F)n2)s1
[S] COC(=O)NCc1nc(C)c(-c2csc(-c3cc(F)c4[nH]nnc4c3)n2)s1
Data request: Please put the entries in order of rising pEC50. # answer = labels listed in requested order
Data returned: Q, R, P, S

[a] Cc1nc(COc2ncccn2)sc1-c1cccc(-c2ccc3nn[nH]c3c2)n1
[b] Cc1nc(CNc2cccnn2)sc1-c1cccc(-c2cc(F)c3nn[nH]c3c2F)n1
Data request: Given the two records a and b , choose the one whose pEC50 value is lower. Answer = label.
Data returned: a
